Below: a set of entries, each annotated with reported log10(solubility kinetic).
Details: buffer; pH 7.4; 200.0 µM
On a log10 scale: recorded solubility kinetic, unit mg/mL.

Form field: reported log10(solubility kinetic) of CCCCn1c(NCc2ccncc2)nc2ccccc21
-1.40

* * *

The entries below come with measured solubility kinetic values attached.
Details: buffer; pH 7.4; 200.0 µM
Please give a number only; it is taken to be in µg/mL.

Consider the worked cases shown below.
| Compound | Reported |
| --- | --- |
| CN(C)CCSC1c2ccccc2CSc2ccccc21.Cl (stereo unspecified) | 51.6 |
| Cc1ccnc(NS(=O)(=O)c2ccc3c(c2)CCO3)c1 | 10.4 |
| O=C(Nc1cccnc1)OCc1ccccc1 | 23 |

Let us move to another entry and its solubility kinetic.
Reported solubility kinetic for CC(=O)Oc1c(C(C)C)cc(N(C(C)=O)c2ccccc2)cc1C(C)C : what is it?
41.5

* * *

Details: buffer; pH 7.4; 200.0 µM
Measurement kind: solubility kinetic

Below, 2 compounds whose answers are already recorded.
| Compound | solubility kinetic |
| --- | --- |
| CCOc1ccc(S(=O)(=O)NC2CCCC2)cc1C | > 42.5 µg/mL |
| CC(C)(C)c1ccc(-c2noc(-c3ccno3)n2)cc1 | < 0.2 µg/mL |

# input for lookup
# input compound: CCc1cc(C(=O)NCC2CCCO2)sc1C (stereo not drawn) ; wanted: its solubility kinetic
> 38 µg/mL

* * *

Details: buffer; pH 7.4; 200.0 µM
Measurement kind: solubility kinetic

Some solved cases for reference:
| Molecule | solubility kinetic |
| --- | --- |
| COc1ccc(OC)c2nc(-c3ccc4c(c3)OCO4)ccc12 | < 0.7 µg/mL |
| CCOC(=O)c1ccc(-c2ccc3c(c2)CCC3)nc1C | < 0.6 µg/mL |

Now for another entry.
Need solubility kinetic, item CC(C)CCNC(=O)c1ccc2c(c1)ncn2C1CCCC1
> 44.9 µg/mL

* * *

Details: buffer; pH 7.4; 200.0 µM
Measurement kind: solubility kinetic

| Compound | solubility kinetic |
| --- | --- |
| O=C(CNC(=O)c1ccc(C(F)(F)F)cc1)NC1CC1 | > 42.9 µg/mL |
| Nc1nc(-c2ccc(Oc3ccccc3)cc2)cs1 | 12.8 µg/mL |
| O=C(COc1ccccc1)Nc1nc2c(s1)CCCC2 | 3.7 µg/mL |
| O=C(O)Cn1cc(C(=O)c2ccccc2F)c2ccccc21 | 44.5 µg/mL |
| Cc1onc(C(=O)NCCc2ccccc2)c1[N+](=O)[O-] | > 41.3 µg/mL |

Suppose we examine the compound CC1Cc2ccccc2N1S(=O)(=O)c1cnc(Cl)c(Br)c1 (stereo not drawn) ; what solubility kinetic value has been reported?
< 0.4 µg/mL

I have this compound here, COc1ccc(C2(C)NC(=O)N(CC(=O)NC3(C#N)CCCCC3)C2=O)cc1 (stereo not drawn) , and I need its recorded solubility kinetic.
> 57.7 µg/mL

May I ask what solubility kinetic has been recorded for Nn1c(SCC(=O)Nc2ccc(N3CCOCC3)cc2)nnc1C1CC1 ?
> 56.2 µg/mL

* * *

Details: buffer; pH 7.4; 200.0 µM
Measurement kind: solubility kinetic

I'd like to know its solubility kinetic. The molecule in question is C#Cc1cccc(NC(=O)Cc2cccs2)c1
> 36.2 µg/mL

Which value of solubility kinetic has been reported for CC(C)N(C)CCOC(=O)C1COc2ccccc2O1.Cl (stereo not given) in the records?
> 47.4 µg/mL

Fill in the blank: the reported solubility kinetic of COc1ccc(N(CC(=O)N2CCOCC2)S(C)(=O)=O)cc1Cl is ____.
> 54.4 µg/mL

Would you kindly share the measured solubility kinetic for CCCOc1ccc(C2=CSC3=NCCN23)cc1[N+](=O)[O-] ?
> 45.8 µg/mL

* * *

Details: buffer; pH 7.4; 200.0 µM
Measurement kind: solubility kinetic

The cases that follow already have their solubility kinetic on record.
| Molecule | Measurement kind | Reported |
| --- | --- | --- |
| Cc1cccc(Nc2nnc(SCC(=O)NCC3CCCO3)s2)c1C (centres undefined) | solubility kinetic | > 56.8 µg/mL |
| COc1ccc(NS(=O)(=O)c2cn(C)c(=O)n(C)c2=O)c(OC)c1 | solubility kinetic | > 53.3 µg/mL |
| COc1ccc(OC)c([C@@H](O)[C@H](C)NC(C)(C)C)c1.Cl | solubility kinetic | > 45.6 µg/mL |

# input for lookup
Data request, read-out solubility kinetic, for O=C(Cc1ccccc1)Nc1cccc(NC(=O)c2ccccc2)c1
1.5 µg/mL

* * *

Details: buffer; pH 7.4; 200.0 µM
Measurement kind: solubility kinetic

| Molecule | solubility kinetic |
| --- | --- |
| COc1ccc(NC(=O)Nc2ccc3c(c2)CCC3)cc1 | < 0.3 µg/mL |
| CCOC(=O)c1ccc2c(c1)N(CC#N)C(=O)C(C)(C)O2 | > 43.2 µg/mL |
| COc1ccc(NC(=O)C(=O)Nc2cccc3ccccc23)c(OC)c1 | < 0.4 µg/mL |

Suppose we examine the molecule N#Cc1cccnc1N1CCN(C(=O)c2cccs2)CC1 ; what solubility kinetic value has been reported?
> 44.8 µg/mL

Request the reported solubility kinetic associated with CC(=O)c1ccc(N2CCN(C(=O)c3cc(S(=O)(=O)N4CCOCC4)ccc3C)CC2)cc1
> 70.7 µg/mL

What does the data say about its solubility kinetic? Entry: CCOP(=O)(c1ccccc1)C(O)c1ccc([N+](=O)[O-])cc1 (stereo unspecified)
> 48.2 µg/mL

Tell me the measured solubility kinetic of CC(NC(=O)c1cccc(S(=O)(=O)N(C)c2ccccc2)c1)c1cccnc1 (stereo unspecified) , please.
> 59.3 µg/mL

Entry O=C(CSc1nc(C2CC2)nc2ccccc12)Nc1ccccc1 : reported solubility kinetic = ?
< 0.2 µg/mL

What measured solubility kinetic goes with Nc1nc(F)cc(NCc2ccccc2)n1 ?
> 32.7 µg/mL

Name the reported solubility kinetic value associated with the molecule CC(O)c1nc2ccccc2n1CCCOc1ccccc1 (stereo unspecified)
> 44.5 µg/mL

What measured solubility kinetic goes with CCOC(=O)c1sc2nc(C)nc(NC3CCC(O)CC3)c2c1C (stereo unspecified) ?
< 0.2 µg/mL

* * *

Details: buffer; pH 7.4; 200.0 µM
Item-by-item account of solubility kinetic

Would you please look over these solved cases?
| Molecule | solubility kinetic |
| --- | --- |
| COc1ccc(C(=O)Nc2cc(OC)c(Cl)cc2OC)cc1 | < 0.7 µg/mL |
| O=C(COC(=O)CNC(=O)C1CCCCC1)NCc1ccccc1 | > 49.9 µg/mL |
| Nc1ccccc1N=Cc1ccc(-c2cccc(Cl)c2)o1 | < 0.3 µg/mL |

Kindly review the next compound as well.
Dear colleague, I am looking for the recorded solubility kinetic of the following compound: O=C(Nc1ccncc1)c1ccc(Br)cc1
> 41.6 µg/mL

* * *

Quick reference for solubility kinetic among some compounds
Details: buffer; pH 7.4; 200.0 µM

Example cases with answers are listed next.
| Compound | solubility kinetic |
| --- | --- |
| CCCCN(C(=O)c1ccc2c(c1)OCO2)C1CCS(=O)(=O)C1 (stereo not drawn) | > 50.9 µg/mL |
| CCO/C(C)=C1/SC(=S)NC1=O | > 30.5 µg/mL |
| CCCn1nc(C(=O)NC2CC2)c2ccccc2c1=O | > 40.7 µg/mL |
| CCOC(=O)Cn1nc(C)n(-c2c(C)cccc2C)c1=O | > 43.4 µg/mL |
| O=C(O)CN1C(=O)C(=O)N(Cc2ccc(Cl)cc2Cl)C1=O | > 49.7 µg/mL |

What does the data say about its solubility kinetic? Entry: O=C(NCC(c1ccc(F)cc1)N1CCOCC1)c1ccc(OCc2ccccc2)cc1 (stereo not drawn)
5.8 µg/mL

* * *

Details: buffer; pH 7.4; 200.0 µM
Decision: solubility kinetic compared against 40 µg/mL; not below it gives y, below it gives n.

| Compound | Label |
| --- | --- |
| O=c1ccc2cc3c([nH]c4ccc(Br)cc43)oc-2c1O | y |

Entry O=S(=O)(NCc1cccs1)c1ccccc1Cl : is its solubility kinetic no less than 40 µg/mL?
y

Is it the case that Cc1cccc(N2CCN(C(=S)NC3CCCCC3)CC2)c1C has solubility kinetic reaching or exceeding 40 µg/mL?
n

Quick check, solubility kinetic >= 40 µg/mL? Cl.ClCCN1CCN(c2ccnc3cc(Cl)ccc23)CC1
y

Given the entry O=C(COC(=O)Cc1ccc(S(=O)(=O)N2CCOCC2)s1)Nc1ccccc1 , answer whether its solubility kinetic meets or surpasses 40 µg/mL.
y

Please indicate if the recorded solubility kinetic for O=C1Nc2ccccc2C1c1ncc(C(F)(F)F)cc1Cl (stereo not drawn) meets or exceeds 40 µg/mL.
y

* * *

Details: buffer; pH 7.4; 200.0 µM
Each entry below lists one item and its recorded solubility kinetic value.

| Molecule | solubility kinetic |
| --- | --- |
| CCOC(=O)C(Nc1ccc2ccccc2c1)C(=O)OCC | > 45.2 µg/mL |
| O=C(Cc1c[nH]c2ccccc12)NCc1ccncc1 | > 39.8 µg/mL |
| O=C(NCc1cccnc1)Nc1ccc(Cl)cc1 | > 39.3 µg/mL |
| COc1ccccc1C(=O)NC(=O)CSc1cccc[n+]1[O-] | > 47.8 µg/mL |
| COc1ccc(OC)c(CNC(=O)c2coc(=O)c3ccccc23)c1 | > 50.9 µg/mL |

Fill in the blank: the reported solubility kinetic of CCOc1ccccc1NC(=O)c1ccc2c(c1)C(=O)N(CC)C2=O is ____.
< 0.4 µg/mL

What measured solubility kinetic goes with O=C(O)COCC(=O)Nc1cc(C(F)(F)F)cc(C(F)(F)F)c1 ?
> 51.8 µg/mL
